Test system: KM12 colon
experiment-description: NCI tumour cell line growth inhibition, 48 h
reported-property: TGI (µM)

| compound | inequality-sign | observed-value |
| --- | --- | --- |
| O=c1c2ccccc2nc(-c2ccc(Br)cc2)n1NC1OC(CO)C(O)C(O)C1O (stereo not drawn) | > | 100 |
| COc1ccc(C(c2ccc(C(C)C)cc(=O)c2O)c2ccc3cccnc3c2O)cc1 (stereo not drawn) | = | 18.7 |
| CCOC(=O)c1c(-c2ccccc2)[n+](=O)c2ccc(Cl)cc2n1[O-] | = | 18 |

----------
System: SF-539 CNS
experiment-description: NCI tumour cell line growth inhibition, 48 h
Please use 1 (yes) whenever TGI is not below 30 µM, and 0 (no) whenever it is.

| molecule | label |
| --- | --- |
| N#Cc1c(-c2ccccc2)c(N=Nc2ccc(F)cc2)c(=O)n2c1[nH]c1ccccc12 | 1 (yes) |
| O=C1C(=O)c2ccccc2-c2ccccc21 | 0 (no) |
| Nc1cc2c3c(cccc3c1)C(=O)N(c1ccc(OCCN3CCCCC3)cc1)C2=O | 0 (no) |
| CC1=NN(C(=O)CC(=O)Nc2ccccc2Cl)C(=O)C1N=Nc1ccc(C(=O)O)cc1 (centres undefined) | 1 (yes) |
| O=C(Nc1ccccc1)Nc1cccc(-n2cc(-c3ccncc3)c(-c3ccc(O)c(Cl)c3)n2)c1 | 0 (no) |
| NC(=O)N/N=C(\C(=O)C(=O)Nc1ccc(Cl)c(C(F)(F)F)c1)c1nc2ccc(C(=O)c3ccccc3)cc2[nH]c1=O | 1 (yes) |
| O=C1/C(=C\C(Cl)=C/c2ccc([N+](=O)[O-])cc2)SC(=S)N1CCc1ccc(O)cc1 | 0 (no) |
| CC1(C)C=C(/C=N/Nc2ccc([N+](=O)[O-])cc2)C(C#N)=C(O)C1(C#N)C#N | 1 (yes) |
| C=C1C[C@@H](O)[C@@H](Br)C(C)(C)[C@]12CCC(C)(Cl)C(Br)C2 (some centres undefined) | 1 (yes) |

----------
Where a SMILES comes first, the peptide text is derived from it.
Let's go through some GI50 measurements on RXF 393 renal together.

| compound | GI50 |
| --- | --- |
| O=C1OCc2c1cc(F)cc2[N+](=O)[O-] | > 100 µM |
| CC(C)CC(NC(=O)C(CC(C)C)NC(=O)C(Cc1cnc[nH]1)NC(=O)C(C)NC(=O)C(NC(=O)C(C)NC(=O)C(Cc1c[nH]c2ccccc12)NC(=O)C(CCC(=O)O)NC(=O)C(N)Cc1ccccc1)C(C)C)C(N)=O (stereo not drawn) (H-FEWAVAHLL-NH2; configuration not given here) | > 100 µM |
| CCOC(=O)c1c(-c2ccccc2)[n+](=O)c2ccc(Cl)cc2n1[O-] | 19.3 µM |

----------
The entries below are paired with their reported GI50.
Tested on: HOP-62 NSCLC
experiment-description: NCI tumour cell line growth inhibition, 48 h

| compound | target-or-system | GI50 |
| --- | --- | --- |
| CCCc1cc2cc(-n3nc(C)c4c3CC(C)(C)CC4=O)cc(NC3CCC(O)CC3)c2c(=O)[nH]1 (stereo not given) | HOP-62 NSCLC | 0.129 µM |
| O=C1/C(=C\C(Cl)=C/c2ccc([N+](=O)[O-])cc2)SC(=S)N1CCc1ccc(O)cc1 | HOP-62 NSCLC | 1.41 µM |
| O=C1OCc2c1cc(F)cc2[N+](=O)[O-] | HOP-62 NSCLC | > 100 µM |
| COc1ccc(N(CC(=O)NCCC[Te]c2ccccc2)C(=O)CCSC2=C(C)C(=O)c3ccccc3C2=O)cc1 | HOP-62 NSCLC | 0.582 µM |
| CCOC(=O)/C(=C/c1ccc([N+](=O)[O-])cc1)C(=O)c1ccccc1 | HOP-62 NSCLC | 2.28 µM |
